Test system: A498 renal
Just give me one of these, please: active, inactive

As a guide, the following entries are already answered.
# molecule, discrete.label
rows = [
    ("CCN(Cc1cccnc1)c1ccc(CO)c(Cl)c1", "active"),
    ("COc1cc(/C=C2\\CN(S(=O)(=O)c3ccc(C)cc3)C/C(=C\\c3cc(CN4CCOCC4)c(O)c(OC)c3)C2=O)cc(CN2CCOCC2)c1O", "inactive"),
    ("Nc1ncc(-c2ccc3ncnc(N4CCc5ccc(Cl)cc54)c3c2)cn1", "active"),
    ("O=C(CI)OCC(COC(=O)CI)OC(=O)CI", "inactive"),
]

(Q) # fetch the recorded call for COc1cc2c3c(n(CCCn4ccnc4)c(=O)c2cc1OC)-c1cc2c(cc1C3=O)OCO2 here
(A) active

(Q) # fetch the recorded call for COC1C(O)CC(OC2CC(OC3CC(O[C@@H]4C(=O)c5c(cc6cc(OC7CC(OC8CC(O)C(O)C(C)O8)C(O)C(C)O7)c(C)c(O)c6c5O)CC4[C@H](OC)C(=O)C(C)=O)OC(C)C3O)OC(C)C2O)OC1C (stereo partly specified) here
(A) active

---

Recorded measurements of TGI, one per entry
Tested on: RXF 393 renal
test.method.notes: NCI tumour cell line growth inhibition, 48 h

# compound, subject.of.test, result
data = [
    ("CCCCN(CCCC)CC(C(=O)Nc1ccccc1)/C(C)=N\\NC(=O)c1ccncc1 (stereo not drawn)", "RXF 393 renal", "> 100 µM"),
    ("OC[C@@H]1CC#C/C=C\\C#CC[C@@H]1CO", "RXF 393 renal", "> 100 µM"),
]

In the following, a different compound is considered.
(Q) Would you kindly share the measured TGI for C[C@@H](c1ccccc1)N1CN(C(=O)OCc2ccccc2)C(CO)C1=O (stereo partly drawn) ?
(A) > 100 µM

---

Recorded measurements of TGI, one per entry
Test system: OVCAR-3 ovarian
test.method.notes: NCI tumour cell line growth inhibition, 48 h

A selection of reference data follows.
# molecule, subject.of.test, result
rows = [
    ("CN[C@H](C)[C@@H](OC)c1ccccc1", "OVCAR-3 ovarian", "> 100 µM"),
    ("C[C@H](NC1=CC(=O)C(N[C@@H](C)[C@H](O)c2ccccc2)=CC1=O)[C@H](O)c1ccccc1", "OVCAR-3 ovarian", "> 100 µM"),
    ("COc1ccc(C(=O)c2c(C(C(=O)c3ccc(OC)cc3)C(=O)c3ccc(OC)cc3)n(C(=O)c3ccc(OC)cc3)c3ccccc23)cc1", "OVCAR-3 ovarian", "> 100 µM"),
    ("CC=C(CBr)CCC(Br)C(C)(C)Cl (mixture of isomers)", "OVCAR-3 ovarian", "> 10 µM"),
    ("CC(C)=CC1CC(=O)C1(C)Sc1ccccc1 (stereo unspecified)", "OVCAR-3 ovarian", "> 100 µM"),
    ("C[n+]1[se]c2ccccc2c1Cl", "OVCAR-3 ovarian", "> 71.9 µM"),
    ("Clc1ccc(OCCSCCCCCCCCCCSCCOc2ccc(Cl)cc2)cc1", "OVCAR-3 ovarian", "> 100 µM"),
    ("CSc1nc2c(nc(N)n2C2OC(CO)C(O)C(O)C2O)c(=O)n1C (stereo unspecified)", "OVCAR-3 ovarian", "> 100 µM"),
]

(Q) Would you kindly share the measured TGI for CN(C)C(=S)OC(Cn1cncn1)c1ccc(Cl)cc1Cl (stereo unspecified) ?
(A) > 100 µM

(Q) Would you kindly share the measured TGI for O=C(NCc1ccccc1)c1cc2ccccc2oc1=Nc1ccccc1F ?
(A) > 100 µM

(Q) Would you kindly share the measured TGI for COc1c(Cl)cc(Cl)cc1S(=O)O ?
(A) > 100 µM

---

Test system: DMS 273 small cell lung
test.method.notes: NCI tumour cell line growth inhibition, 48 h
Recorded measurements of TGI, one per entry

# compound, TGI
measured = [
    ("COc1ccc(/C=N/Nc2nc(-c3cc4oc(=O)n(C)c4cc3Cl)cs2)cc1OC", "> 100 µM"),
    ("O=c1[nH]c2nc3ccccc3n2c(O)c1-c1ccccc1", "> 100 µM"),
    ("CN[C@H](C)[C@@H](OC)c1ccccc1", "> 100 µM"),
    ("O=C(c1ccccc1)C(c1ccccc1)C1(O)C(=O)Nc2c(Cl)ccc(Cl)c21 (stereo not given)", "42.9 µM"),
]

In the following, a different compound is considered.
(Q) Would you kindly share the measured TGI for O=C1/C(=N\O)C2CCC1C2 (stereo not given) ?
(A) > 100 µM

---

Tested on: SK-MEL-2 melanoma
test.method.notes: NCI tumour cell line growth inhibition, 48 h
Recorded measurements of TGI, one per entry

# compound, TGI
records = [
    ("CC(C)Oc1c(N(Cc2ccccc2)c2ccccc2C2SCCCS2)c(=O)c1=O", "20.1 µM"),
]

In the following, a different compound is considered.
(Q) Give recorded TGI with SK-MEL-2 melanoma for the following compound: NNC(=O)c1n[nH]n(N)c1=S
(A) > 100 µM

---

Test system: HT29 colon
test.method.notes: NCI tumour cell line growth inhibition, 48 h
Recorded measurements of TGI, one per entry

A selection of reference data follows.
# compound, TGI
data = [
    ("CCC1(CC)C(=O)N(C(=O)c2ccc(C)cc2)N(C(=O)c2ccc(C)cc2)C1=O", "> 75 µM"),
    ("O=C(c1cc(Cl)ccc1Cl)N1CCN(c2ccc(Cl)c(Cl)c2)CC1", "83.9 µM"),
    ("CC(C)=CCC/C(C)=C/CCC(C(=O)COCc1ccccc1)P1(=O)OC(C)(C)CN1C(C)(C)C (centres undefined)", "> 100 µM"),
]

In the following, a different compound is considered.
(Q) Would you kindly share the measured TGI for CC(=O)Nc1nc2ncc(C=O)nc2c(=O)[nH]1 ?
(A) > 100 µM

---

System: SNB-19 CNS
test.method.notes: NCI tumour cell line growth inhibition, 48 h
quantity.name: TGI

# compound, TGI
data = [
    ("O=C(Nn1cc(F)c(=O)[nH]c1=O)C12CC3CC(CC(C3)C1)C2", "> 100 µM"),
    ("N#CC12CC3=C(N=C1NC1=C(CCc4ccccc41)C2)c1ccccc1CC3 (stereo not given)", "73.5 µM"),
    ("COc1ccc(-c2cc(=O)c3cc(C)cnc3[nH]2)cc1", "> 100 µM"),
    ("O=C(Nc1ccccc1)C(=O)C(C(=O)c1ccccc1F)C1OC(=O)c2ccccc21 (stereo not given)", "> 100 µM"),
    ("CCOC(=O)C1=C(C)N=C2SC=C(c3ccccc3)N2[C@H]1c1cn[nH]c1-c1ccc(Cl)cc1", "20.7 µM"),
    ("COC1CC(C)(NC(C)=O)C2OC(c3ccccc3)OCC2O1 (stereo not given)", "> 100 µM"),
    ("C=C(C)c1ccccc1 (tested in a mixture with another compound)", "> 100 µM"),
    ("CC[C@]1(O)CC2CN(CCCc3c([nH]c4ccccc34)[C@@](C(=O)OC)(c3cc4c(cc3OC)N(C)C3C45CCN4CC=C[C@](CC)(C45)C(OC(C)=O)[C@@]3(O)C(=O)OC)C2)C1 (stereo not given in full)", "9.83 µM"),
    ("C/C(=N\\NC(=O)c1ccc(C(C)(C)C)cc1)c1ccc(O)cc1O", "> 100 µM"),
]

In the following, a different compound is considered.
(Q) Would you kindly share the measured TGI for COc1ccc(-c2cc(=O)oc3ccc(Cl)cc23)cc1F ?
(A) > 100 µM

---

System: NCI-H522 lung
Just give me one of these, please: Y for active, N for inactive

As a guide, the following entries are already answered.
# compound, subject.of.test, discrete.label
data = [
    ("Nc1ccn(C2OC(CO)C(O)C2(F)F)c(=O)n1 (stereo not drawn)", "NCI-H522 lung", "N"),
    ("O=C1c2ccccc2-c2c1c1ccc([N+](=O)[O-])cc1c(=O)n2CCCN1CCOCC1", "NCI-H522 lung", "Y"),
]

(Q) # fetch the recorded call for COc1cc(/C=C2\CN(S(=O)(=O)c3ccc(C)cc3)C/C(=C\c3cc(CN4CCOCC4)c(O)c(OC)c3)C2=O)cc(CN2CCOCC2)c1O here
(A) N

---

Recorded measurements of GI50, one per entry
Tested on: HCC-2998 colon

# structure.as.smiles, subject.of.test, result
records = [
    ("CS(=O)(=O)Nc1ccc(Nc2c3ccccc3nc3cc([N+](=O)[O-])ccc23)cc1", "HCC-2998 colon", "1620 nM"),
]

(Q) Would you kindly share the measured GI50 for COc1cccc(C(=O)c2sc(Nc3ccc(N4CCN(C(C)C)CC4)cc3)nc2N)c1 ?
(A) 3390 nM

(Q) Would you kindly share the measured GI50 for CCOC(=O)C1=C(C)N=C2SC=C(c3ccccc3)N2[C@H]1c1cn[nH]c1-c1ccc(Cl)cc1 ?
(A) 6240 nM

(Q) Would you kindly share the measured GI50 for O=C(c1ccccc1)c1c(C(F)(F)F)n([O-])c2ccc(F)cc2[n+]1=O ?
(A) 773 nM
